biological target: D141E (Agrobacterium tumefaciens, UniProt P39669, D141E); construct: gene glgC; His-tagged, from pBLH1/pBHL1 derivative, expressed in E. coli BL21(DE3); homotetramer; experiment: Activator saturation of ADP-Glc synthesis (PPi converted to phosphate, Malachite Green) in 50 mM HEPES pH 7.5, 7 mM MgCl2, 1.5 mM Glc1P, 1.5 mM ATP; modified Hill fit.; format: biochemical; details: n = 2
Readout Label: EC50

Challenge: Record CC(=O)C(=O)O [Pyr, pyruvate] : what is its EC50 with D141E (Agrobacterium tumefaciens, UniProt P39669, D141E)?
Response given: 60 µM

* * *

molecular target: R11D/D141R (Agrobacterium tumefaciens, UniProt P39669, D141R/R11D); construct: His-tagged, from pBLH1/pBHL1 derivative, expressed in E. coli BL21(DE3); homotetramer; assay: Activator saturation of ADP-Glc synthesis (PPi converted to phosphate, Malachite Green) in 50 mM HEPES pH 7.5, 7 mM MgCl2, 1.5 mM Glc1P, 1.5 mM ATP; modified Hill fit.; details: n = 2; read-out: A0.5
Readout Label: EC50
Field: value (include unit after the number)

Challenge: Quick check: EC50 of O=P(O)(O)OC[C@H]1OC(O)(CO)[C@@H](O)[C@@H]1O (stereo partly shown) [Fru6P, fructose 6-phosphate] ?
Response given: 1320 µM

* * *

Please respond with reported pKd for every item in the list.
Molecular target: R11D (Agrobacterium tumefaciens, UniProt P39669, R11D)
Construct: His-tagged, from pBLH1/pBHL1 derivative, expressed in E. coli BL21(DE3); homotetramer
Assay: Thermal shift assay (SYPRO Orange) with varied ligand concentration in 50 mM HEPES pH 8.0, 0.02 mg/mL protein, 25-95 C; Tm versus log ligand concentration fitted to obtain Kd.
Settings: n = 3
Protocol: We used thermal shift assays to find whether the effect of the mutation was on the ability of Fru6P/Pyr either to bind or activate the enzyme. Activators of ADP‐Glc PPase bind to the enzyme and stabilize it from thermal denaturation (Bhayani & Ballicora, [2022]). Thermal shift assays were performed as described (Hill et al., [2019]) using the QuantStudio™ 3 Real‐Time PCR System (Thermo Fisher Scientific) and QuantStudio™ Design and Analysis Software v1.5.1. […]
Give bare numbers, as −log10 of the molar value.

# Compound, Target, Observed Measurement
rows = [
    ("CC(=O)C(=O)O [Pyr, pyruvate]", "R11D (Agrobacterium tumefaciens, UniProt P39669, R11D)", 4.27),
]

The record that follows has no pKd shown yet.
Challenge: Find the recorded pKd belonging to O=P(O)(O)OC[C@H]1OC(O)(CO)[C@@H](O)[C@@H]1O (some centres unmarked) [Fru6P, fructose 6-phosphate] and report it.
Response given: 2.74

* * *

target: D141A (Agrobacterium tumefaciens, UniProt P39669, D141A); construct: gene glgC; His-tagged, from pBLH1/pBHL1 derivative, expressed in E. coli BL21(DE3); homotetramer; assay: Activator saturation of ADP-Glc synthesis (Malachite Green) at pH 7.5 with 1.5 mM Glc1P and 4 mM ATP; modified Hill fit.; type: biochemical; conditions: n = 2; read-out: A0.5
Please go through the items and note down their pEC50.
Numbers only, as −log10 of the molar value.

# Compound, Observed Measurement
data = [
    ("O=P(O)(O)OC[C@H]1OC(O)(CO)[C@@H](O)[C@@H]1O (some centres unmarked) [Fru6P, fructose 6-phosphate]", 3.30),
]

Next, consider the following compound.
Challenge: What pEC50 value was documented for this compound, CC(=O)C(=O)O [Pyr, pyruvate] ?
Response given: 4.31
